src = PubChem BioAssay AID179

Reported EC50 values for the following compounds.
- Tested on: CEM cells HIV-1 protection, formazan growth assay
- Test summary: NCI AIDS Antiviral Assay
Measurement kind: EC50

Compound	Measurement kind	Value
NC(=S)NN/C=C(\C=Nc1ccccc1)[N+](=O)[O-]	EC50	> 355 µM
Cc1cc(=O)n2c(nc3cc(C)c(C)cc32)s1	EC50	> 200 µM
Cc1sc2ncnc(N)c2c1C	EC50	> 275 µM
O=C(OC12CC3CC(CC(C3)C1)C2)c1ccc(NCc2cc(O)ccc2O)cc1	EC50	> 20 µM
CC(=O)OC1=c2ccccc2=C(O)C2C1C=NN2C(C)=O (stereo not drawn)	EC50	> 200 µM
C[N+](C)(C)CC(=O)N/N=C(/C=C/c1ccccc1)CC1OC(=O)c2ccccc21 (stereo not drawn)	EC50	> 589 µM
N#CC(NNC(=O)Cc1ccccc1)c1ccc([N+](=O)[O-])cc1 (stereo not drawn)	EC50	> 115 µM
COc1cc(C[N+]23CC[N+](Cc4cc(OC)cc(OC)c4)(CC2)C3)cc(OC)c1	EC50	> 525 µM
N#CC(C#N)=C1C(=O)NC(N)=C1C#N	EC50	> 200 µM
C=CC1(C)CCC2C(=CCC3C(C)(COC4OC(CO)C(O)C(O)C4O)C(O)CCC23C)C1 (stereo not drawn)	EC50	> 200 µM
NC(Cc1ccc(S(=O)(=O)O)cc1)C(=O)NC(Cc1ccc(S(=O)(=O)O)cc1)C(=O)NC(Cc1ccc(S(=O)(=O)O)cc1)C(=O)NC(Cc1ccc(S(=O)(=O)O)cc1)C(=O)O (stereo not drawn)	EC50	> 200 µM
O=C(O)c1ccccc1C(=O)NC(Cc1cnc[nH]1)C(=O)O (stereo not drawn)	EC50	> 200 µM
COC(=O)c1c(C(=O)OC)c2ccccn2c1-c1cc(OC)c(Br)c(=O)o1	EC50	> 200 µM
COc1cc([C@H]2c3cc(O)c(OC)cc3CC3C(=O)OCC32)ccc1O (stereo partly drawn)	EC50	> 363 µM
CC(C)C1=C(O)C2=C(C(=O)C1=O)C1(C)CCCC(C)(C)C1CC2O (stereo not drawn)	EC50	> 200 µM
COC(=O)c1ccc(Oc2nc3ccc(C(F)(F)F)cc3nc2-c2ccccc2)cc1	EC50	> 200 µM
Cc1cn(C2CC(N=[N+]=[N-])C(CO)O2)c(=O)nc1N (stereo not drawn)	EC50	> 200 µM
CCCCCCCCCCCCCCCC=C(c1cc(Cl)c(OC)c(C(=O)O)c1)c1cc(Cl)c(OC)c(C(=O)O)c1	EC50	> 1200 µM
CC(=O)Nc1ccc(C2C(C(=O)Nc3ccccc3)=C(C)NC(C)=C2C(=O)Nc2ccccc2)cc1	EC50	> 74.1 µM
O=Cn1c2ccccc2c2ccccc21	EC50	> 200 µM
COC(=O)c1cc(=O)c2scc(C)[n+]2[nH]1	EC50	> 955 µM
CCOc1ccc(NC(=O)C(=O)Nn2c(N)nnc2N)cc1	EC50	> 61.7 µM
Cc1ccc(N=Nc2ccc(O)c(CN(C)C)c2)cc1C	EC50	> 200 µM
